Tested on: SCDase derived from the genus Pseudomonas
measurement-description: Reverse reaction on various acceptors by SCDase-1 ([1-14C] stearic acid)
Type: biochemical
measurement-context: 1 nmol [1-14C] stearic acid, 1 nmol lysosphingolipid, 30 μU SCDase, acetate buffer pH 6.0, 0.8% Triton X-100, overnight 37° C., galactosylsphingosine = 100
Experimental: A 10 μl portion of 50 mM acetate buffer (pH 6.0) containing 1 nmol [1-^14C] stearic acid, 1 nmol lysosphingolipid, 0.8% Triton X-100 and 30 μU SCDase derived from the genus Pseudomonas was subjected to overnight reaction at 37° C. The thus obtained reaction solution was developed on thin layer chromatography and exposed to an imaging plate to carry out for determining the reaction product by BAS 1000 Imaging Analyzer (manufactured by Fuji Photo Film).
Rule: Met for Relative activity (%) not less than 40%, Not met for anything less.

[
  {
    "compound": "CCCCCCCCCCCCC/C=C/[C@@H](O)[C@@H](N)COP(=O)([O-])OCC[N+](C)(C)C",
    "label-class": "Not met"
  },
  {
    "compound": "CCCCCCCCCCCCC/C=C/[C@@H](O)[C@@H](N)CO",
    "label-class": "Not met"
  },
  {
    "compound": "CCCCCCCCCCCCC/C=C/[C@@H](O)[C@@H](N)CO[C@@H]1O[C@H](CO)[C@@H](O[C@@H]2O[C@H](CO)[C@H](O[C@@H]3O[C@H](CO)[C@H](O)[C@H](O[C@@H]4O[C@H](CO)[C@H](O)[C@H](O)[C@H]4O)[C@H]3NC(C)=O)[C@H](O[C@]3(C(=O)O)C[C@H](O)[C@@H](NC(C)=O)[C@H]([C@H](O)[C@H](O)CO)O3)[C@H]2O)[C@H](O)[C@H]1O [Lysoganglioside GM1a]",
    "label-class": "Not met"
  },
  {
    "compound": "CCCCCCCCCCCCC/C=C/[C@@H](O)[C@@H](N)CO[C@@H]1O[C@H](CO)[C@H](O)[C@H](OS(=O)(=O)O)[C@H]1O [Lysosulfatide]",
    "label-class": "Met"
  },
  {
    "compound": "CCCCCCCCCCCCC/C=C/[C@@H](O)[C@@H](N)CO[C@@H]1O[C@H](CO)[C@H](O)[C@H](O)[C@H]1O",
    "label-class": "Met"
  },
  {
    "compound": "CCCCCCCCCCCCC/C=C/[C@@H](O)[C@@H](N)CO[C@@H]1O[C@H](CO)[C@@H](O[C@@H]2O[C@H](CO)[C@H](O)[C@H](O)[C@H]2O)[C@H](O)[C@H]1O [Lysolactosyl ceramide]",
    "label-class": "Not met"
  }
]
